# Experimental System: human vasopressin V1a receptor (Homo sapiens, UniProt P37288)
# Sequence (P37288 whole entry): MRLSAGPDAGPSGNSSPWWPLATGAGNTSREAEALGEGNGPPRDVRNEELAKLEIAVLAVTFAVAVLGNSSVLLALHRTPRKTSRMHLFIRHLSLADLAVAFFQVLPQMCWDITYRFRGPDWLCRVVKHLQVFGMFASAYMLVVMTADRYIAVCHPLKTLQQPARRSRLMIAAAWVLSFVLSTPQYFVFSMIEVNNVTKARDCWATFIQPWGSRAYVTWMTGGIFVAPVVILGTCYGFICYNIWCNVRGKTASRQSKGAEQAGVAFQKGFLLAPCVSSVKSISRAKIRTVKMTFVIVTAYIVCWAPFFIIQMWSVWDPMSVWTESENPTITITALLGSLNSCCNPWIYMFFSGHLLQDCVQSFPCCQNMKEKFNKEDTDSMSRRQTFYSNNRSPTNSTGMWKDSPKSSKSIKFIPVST
# Assay Notes: Receptor binding study, [3H]AVP displacement on CHO cell membranes, human V1a
# Particulars: [3H]AVP displacement, CHO cell membrane, 25° C., one hour; read-out: Human V1a Ki
pKi: −log10 of the molar value.
Readout Kind: pKi

Previously resolved entries follow.
CCOC(=O)CC(=O)NCCCOc1cc(C(=O)N2CC[C@H](C)Nc3ccccc32)ccc1-c1ccc2[nH]ccc2c1 [Example 170]	9.43
CCN(CC)CCCOc1cc(C(=O)N2CC[C@H](C)Nc3ccccc32)ccc1-c1ccc2[nH]ccc2c1 [Example 116]	9.80
COc1cc(C(=O)N2CCC(C)(C)Nc3ccccc32)ccc1-c1ccc2[nH]ccc2c1 [Example 2]	9.51
C[C@H]1CCN(C(=O)c2ccc(-c3ccc4[nH]ccc4c3)c(C(=O)N3CCN(C)CC3)c2)c2ccccc2N1 [Example 102]	9.60
CCCN(C)CCOc1cc(C(=O)N2CC[C@H](C)Nc3ccccc32)ccc1-c1ccc2[nH]ccc2c1 [Example 121]	9.85
CNCCCOc1cc(C(=O)N2CC[C@H](C)Nc3ccccc32)ccc1-c1ccc2[nH]ccc2c1 [Example 51]	10.10
Cc1ccc2c(c1)NC(C)CCN2C(=O)c1ccc(-c2ccc3[nH]ccc3c2)c(OCCN2CCOCC2)c1 (stereo not drawn) [Example 104]	9.46
CCCNCCCOc1cc(C(=O)N2CC[C@H](C)Nc3ccccc32)ccc1-c1ccc(NCC)cc1 [Example 165]	9.55
CC(=O)Nc1cc(C(=O)N2CCC(C(C)C)Nc3ccccc32)ccc1-c1ccc2[nH]ccc2c1 (stereo not drawn) [Example 7]	9.42
CC1CCN(C(=O)c2ccc(-c3ccc4[nH]ccc4c3)c(OCCCCCN)c2)c2ccccc2N1 (stereo not drawn) [Example 37]	9.62

P. CCCN(C)CCCOc1cc(C(=O)N2CC[C@H](C)Nc3ccccc32)ccc1-c1ccc(NC)cc1 [Example 105]
Q. CC(C)N1CCN(CCCOc2cc(C(=O)N3CC[C@H](C)Nc4ccccc43)ccc2-c2ccc3[nH]ccc3c2)CC1 [Example 99]
Q: Higher pKi between P and Q ? Your choice should be expressed through its label.
Ans: P
(P: 9.80, Q: 9.52)

----------
# Experimental System: human vasopressin V1a receptor (Homo sapiens, UniProt P37288)
# Assay Notes: Receptor binding study, [3H]AVP displacement on CHO cell membranes, human V1a
# Particulars: [3H]AVP displacement, CHO cell membrane, 25° C., one hour; read-out: Human V1a Ki
Readout Kind: Ki (nM)

Previously resolved entries follow.
CC1CN(CCCOc2cc(C(=O)N3CC[C@H](C)Nc4ccccc43)ccc2-c2ccc3[nH]ccc3c2)CC(C)O1 (stereo partly shown) [Example 80]	0.064
CCN(C)CCCOc1cc(C(=O)N2CC[C@H](C)Nc3ccccc32)ccc1-c1ccc2[nH]ccc2c1 [Example 118]	0.15
C[C@@H]1CCN(C(=O)c2ccc(-c3ccc4[nH]ccc4c3)c(OCCN3CCOCC3)c2)c2ccccc2N1 [Example 66]	0.41

1. CCN(C)CCCCOc1cc(C(=O)N2CC[C@H](C)Nc3ccccc32)ccc1-c1ccc2[nH]ccc2c1 [Example 172]
2. C[C@H]1CCN(C(=O)c2ccc(-c3ccc4[nH]ccc4c3)c(C(=O)OCCCN3CCN(C)CC3)c2)c2ccccc2N1 [Example 136]
Q: Higher Ki between 1 and 2 ? Your choice should be expressed through its label.
Ans: 2
(2: 0.23 nM, 1: 0.093 nM)

Data provenance: patent US20080076760A1
